- TARGET: T1, human VEGF C (human, UniProt P49767 103-227, limits assumed)
- T1 construct: also called hVEGFC; hVEGF C
- T1 sequence (looked up): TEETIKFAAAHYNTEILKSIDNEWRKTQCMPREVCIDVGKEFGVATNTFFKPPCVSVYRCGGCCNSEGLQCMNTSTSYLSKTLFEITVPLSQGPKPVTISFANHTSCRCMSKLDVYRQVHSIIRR
- PROTOCOL TEXT: ELISA blocking: VEGFC-biotin captured on streptavidin plate; blocked receptor VEGFR3-Fc (0.2 ug/mL), detected with anti-human Fc-HRP, OD450
- Procedure: SA (streptavidin) was diluted to 1 μg/mL, and 100 μL/well of SA was plated in a microplate at 4° C. overnight. The plate was washed 3 times with PBST and blocked with 3% BSA for 1.5 h. The plate was washed 3 times with PBST, 50 ng/ml of VEGFC-biotin (biotin-labeled human VEGF C) was added, and the plate was incubated for 1.5 h. […] The plate was washed 6 times with PBST, the color development was performed with TMB (SOLARBIO) for 5 min, and OD450 nm was read after stopping.
Listing of entries alongside the reported IC50.
Report as a plain number; the unit µg/mL is understood.

1. am63G12-5G8-18B9 affinity-matured humanized anti-VEGF C VHH antibody (VHH, also called Am63G2-5G8-18B9; am63G12.1-5G8-18B9) VHH: EVQLVESGGGLVQPGGSLRLSCAASGSSFSPYAMGWYRQAPGKQRELVSATSSGGFTLYADSVKGRFTISRDNSKNTVYLQMNSLRAEDTAVYYCYTYYREYDPEMYWGQGTQVTVSS | 0.0215

Just so you know, measured IC50 for LA63G12.1 humanized anti-VEGF C VHH-Fc antibody (Fc fusion, not shown: Fc part (and any hinge or linker) of the dimerized VHH-Fc antibody) EVQLVESGGGLVQPGGSLRLSCAASGSSFSPYAMGWYRQAPGKQRELVSATTSGGSTLYADSVKGRFTISRDNSKNTVYLQMNSLRAEDTAVYYCYMHWRGSDPENYWGQGTQVTVSS came out at 0.182

Just so you know, measured IC50 for LA63G12 anti-VEGF C VHH antibody (VHH, The prokaryotic product was purified on Ni Sepharose) VHH: QLQLVESGGGLVQPGGSLRLSCAASGSSFSPYAMGWYRQAPGKQRELVAATTSGGSTLYADSVKGRFTISRDNAKNTVYLQMNSLKPEDTAVYYCYMHWRGSDPENYWGQGTQVTVSS came out at 0.125

Just so you know, measured IC50 for LA49G9 anti-VEGF C VHH antibody (VHH, The prokaryotic product was purified on Ni Sepharose) VHH: QLQLVESGGGLVQPGGSLRLSCAASGSMFSMYAMGWYRQAPGKQRELVAATTSGGSTLYADSVKGRFTISRDNAENTVYLQMNSLKPEDTAVYYCYTYWRGSDPENYWGRGTQVTVSS came out at 0.0815
